- Experiment Summary: Stability in human cryopreserved hepatocytes without and with cimetidine or furafylline (Example 5)
- Format: in vitro ADME
- Condition: human, cryopreserved hepatocytes, with furafylline 10 μM, substrate 1 μM, furafylline 10 μM; read-out: t1/2
Property Label: half-life at 1 μM (h)

> print(dat)
                               item.smiles  assay.value
1  COC(=O)Nc1nc2ccc(C(=O)c3ccccc3)cc2[nH]1          9.5
2                     CCOc1ccc(NC(C)=O)cc1         1.49

----------
- Experiment Summary: Stability in human cryopreserved hepatocytes without and with cimetidine or furafylline (Example 5)
- Assay type: in vitro ADME
- Condition: human, cryopreserved hepatocytes (suspension), with furafylline 30 µM, substrate 1 μM, 30 μM furafylline; read-out: intrinsic clearance
Property Label: hepatocyte CLint at 1 µM (µL/min/1e6 cells)

> print(dat)
                                   compound  assay.value
1  COC(=O)Nc1nc2ccc(C(=O)c3ccccc3)cc2[nH]1 [Mebendazole]         1.47
